Numbers sourced from the RNAGym collection of RNA variant scans (doi:10.1093/molbev/msab373).

B1: Azoarcus group I ribozyme (parent)
chain: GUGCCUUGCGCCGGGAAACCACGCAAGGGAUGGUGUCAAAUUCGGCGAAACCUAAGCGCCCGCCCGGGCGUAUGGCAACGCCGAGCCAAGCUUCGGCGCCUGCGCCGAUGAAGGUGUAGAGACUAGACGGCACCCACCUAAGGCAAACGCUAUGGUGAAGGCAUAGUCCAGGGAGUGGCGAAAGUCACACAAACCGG

- Variants of: B1
- assay.remarks: reverse-splicing fitness (ratio to wild type); higher = more active; in vitro selection; Mg2+ level not given
Decide by reverse-splicing fitness: equal to or exceeding 0.006 means Satisfied, less means Not satisfied.

variant.key: C82A A111C A120U A145C C150A U176A
group: Not satisfied
//
variant.key: C82G A111C A120C A145C C150U C169A U176C
group: Satisfied
//
variant.key: C82G A111U A120C C150A C169U U176A
group: Satisfied
//
variant.key: C82U A111G A120G A145U C150U C169A
group: Satisfied
//
variant.key: A111G A120U A145G C150U C169G
group: Satisfied

Exam item: decide whether the reported reverse-splicing fitness for C82U A111G A120G A145G C150G C169A U176C is at least 0.006.
Satisfied

Exam item: decide whether the reported reverse-splicing fitness for C82U A111G A120U C150G U176A is at least 0.006.
Not satisfied

Exam item: decide whether the reported reverse-splicing fitness for C82U A111C A120C A145C C150U C169G U176A is at least 0.006.
Satisfied

Exam item: decide whether the reported reverse-splicing fitness for C82A A111U A120U C150U C169A U176A is at least 0.006.
Not satisfied

Exam item: decide whether the reported reverse-splicing fitness for C82G A111C A120G A145C C150G C169A U176G is at least 0.006.
Not satisfied

Exam item: decide whether the reported reverse-splicing fitness for C82A A145U C150U C169G U176G is at least 0.006.
Not satisfied
